FYI, the data here is from paper PMC12864922.

molecular target: TDP-43 (Homo sapiens, UniProt Q13148 1-414); experiment: RNA Bind-n-Seq with designed 260-mer pool; 25 mM Tris-HCl, 150 mM KCl, 3 mM MgCl2, BSA (printed 500 mg/mL), 20 units/mL SUPERase IN; pH not stated; 500 nM RNA pool, 1 h, 4 C; TDP-43 5, 50, 500 nM; high values mean tight binding; settings: protein: recombinant; tags: SBP (GST cleaved off with PreScission; pGEX-GST-SBP)
Sequence (Q13148 whole entry): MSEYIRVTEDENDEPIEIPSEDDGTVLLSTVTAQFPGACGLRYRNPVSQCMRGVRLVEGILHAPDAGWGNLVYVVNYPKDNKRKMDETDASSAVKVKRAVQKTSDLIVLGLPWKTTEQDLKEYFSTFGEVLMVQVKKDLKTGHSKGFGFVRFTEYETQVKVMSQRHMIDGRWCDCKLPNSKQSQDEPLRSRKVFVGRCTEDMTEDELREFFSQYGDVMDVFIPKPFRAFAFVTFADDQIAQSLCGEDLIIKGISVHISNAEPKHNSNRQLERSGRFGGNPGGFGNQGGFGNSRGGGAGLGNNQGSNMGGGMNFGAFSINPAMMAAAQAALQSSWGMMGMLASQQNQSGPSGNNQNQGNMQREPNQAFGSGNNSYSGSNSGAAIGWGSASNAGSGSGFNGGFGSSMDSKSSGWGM
The full ranking holds about 9,900 sequences; the median of “r (bound/input frequency ratio)” is about 0.7, and the highest 2% start at about 6.5. Shown is part of a subset that was picked to be rich in the highest values.

binder	binding signal
ENSMUSG00000042529.274|Kcnj12 (ssRNA) RNA: GGGAGUUCUACAGUCCGACGAUCGCUUCGAUAUCCGCAUGCUAGUGUGCUUACCUGCCACUCACCUCUCUAUCUAGUUGUCGAGUCUAGGGAAGGGCAGAGGGUGGGUCCUGGCCACUGGGUGCCACUGUGGGAGCCGGGGCACCUGUCAUUCUUUCUGAGUAGGUGGGCCUGUAUCCAGAGCAGGGUCUAGGGGCUCCUGCUCCCGGCUCAUCUCAGUGGCCUGAAGCAUUCAAAACUCUAGCCAGCCCCAUCCUCCUCCCUGCCAGAAUGGUCCAGUCCCUGGGCCCUGCUGGAGAGCAGCCUCUUGCGGUCGCACUAGUGUGGAAUUCUCGGGUGUCAAGG	0.622 R (bound/input frequency ratio)
ENSMUSG00000061578.1493|Ksr2 (ssRNA) RNA: GGGAGUUCUACAGUCCGACGAUCGCUUCGAUAUCCGCAUGCUAUGGAUGAAUGGAUGGAUAGGUUGGUAGGUUAAUGUAUUCGUGGAUGGGUGAAUGGAUGGAUGGAUAGAUAGAUGGGAAGGUGGAUGGACAGAUGGAUGGAUGGAUAGAUAGAUGGACAGGUGGUUGGUGGAUAAAUGAGUGAAUGAUUAUGUUGAUAGAUAUGUGGGUAGGCUGAAUGGGUGAAUGGAUAGAUCGAUGACUGGAUGGAGGGUGGGUGACUGUAUAGGCAGGUGGGUAGGUAGCUGGAUGGGUGGGCGUAUCUCUUGCGGUCGCACUAGUGUGGAAUUCUCGGGUGUCAAGG	4.33 R (bound/input frequency ratio)
ENSMUSG00000061578.1488|Ksr2 (ssRNA) RNA: GGGAGUUCUACAGUCCGACGAUCGCUUCGAUAUCCGCAUGCUAAAUGAAUAUGUGGGUAGAAGGGUGAGUGGGUGGAUGAAUGGAUGGAUAGGUUGGUAGGUUAAUGUAUUCGUGGAUGGGUGAAUGGAUGGAUGGAUAGAUAGAUGGGAAGGUGGAUGGACAGAUGGAUGGAUGGAUAGAUAGAUGGACAGGUGGUUGGUGGAUAAAUGAGUGAAUGAUUAUGUUGAUAGAUAUGUGGGUAGGCUGAAUGGGUGAAUGGAUAGAUCGAUGACUGGAUGGAGGGUGGGUGACUGUAUAGGCAGCUCUUGCGGUCGCACUAGUGUGGAAUUCUCGGGUGUCAAGG	5.5 R (bound/input frequency ratio)
ENSMUSG00000031028.183|Tub (ssRNA) RNA: GGGAGUUCUACAGUCCGACGAUCGCUUCGAUAUCCGCAUGCUAAGGGCACAUGUCUCUUGGUUACCUCACUGGUUAAUGGCAGAGUUGAGAACCUCAAAUUCUUUUGUUCCUACUGUUGCCCAGAAACUAGACUCUCUGACCUGCUAGGGUCUAUUCUGCAUGUCCUUUCUCUUCCCAGUUCCAGAGAUGAAACCCCUCCGAGUUAAUGUAUAAGGUUGGAAACCUUUCAGUAGGGAAUCAGGCAGUUCCCUGUUGAAAGUUGUCUGAGUUUUUGCACACCAUUCUGAUCUGAUGUGGCCUGUCUCUUGCGGUCGCACUAGUGUGGAAUUCUCGGGUGUCAAGG	0.952 R (bound/input frequency ratio)
ENSMUSG00000061578.1494|Ksr2 (ssRNA) RNA: GGGAGUUCUACAGUCCGACGAUCGCUUCGAUAUCCGCAUGCUAAAUGGAUGGAUAGGUUGGUAGGUUAAUGUAUUCGUGGAUGGGUGAAUGGAUGGAUGGAUAGAUAGAUGGGAAGGUGGAUGGACAGAUGGAUGGAUGGAUAGAUAGAUGGACAGGUGGUUGGUGGAUAAAUGAGUGAAUGAUUAUGUUGAUAGAUAUGUGGGUAGGCUGAAUGGGUGAAUGGAUAGAUCGAUGACUGGAUGGAGGGUGGGUGACUGUAUAGGCAGGUGGGUAGGUAGCUGGAUGGGUGGGCGUAUAGAAAGCUCUUGCGGUCGCACUAGUGUGGAAUUCUCGGGUGUCAAGG	5.89 R (bound/input frequency ratio)
ENSMUSG00000061578.1492|Ksr2 (ssRNA) RNA: GGGAGUUCUACAGUCCGACGAUCGCUUCGAUAUCCGCAUGCUAAGUGGGUGGAUGAAUGGAUGGAUAGGUUGGUAGGUUAAUGUAUUCGUGGAUGGGUGAAUGGAUGGAUGGAUAGAUAGAUGGGAAGGUGGAUGGACAGAUGGAUGGAUGGAUAGAUAGAUGGACAGGUGGUUGGUGGAUAAAUGAGUGAAUGAUUAUGUUGAUAGAUAUGUGGGUAGGCUGAAUGGGUGAAUGGAUAGAUCGAUGACUGGAUGGAGGGUGGGUGACUGUAUAGGCAGGUGGGUAGGUAGCUGGAUGGGUGGCUCUUGCGGUCGCACUAGUGUGGAAUUCUCGGGUGUCAAGG	7.07 R (bound/input frequency ratio)
ENSMUSG00000031028.285|Tub (ssRNA) RNA: GGGAGUUCUACAGUCCGACGAUCGCUUCGAUAUCCGCAUGCUAUGCAGGUAAGGAGGCUGGAUUGAUGUAAAUGGAAGUAGUACUUUAAGAAAGCUCUAGAUUUCCCAGGUUGGACACUCGACGAAAGGCACACCUGCUGCAGCAGGUUCUGACACACCUGAGCCAUACAUUGCCAUCAGAGAACCCUCAGCGAGGUAGCCUUUGUUUACAGUCUAGUUUCUAGAGGGCAGUAGGACUUCCAUGCUGGGGCUGGCCUAUCUCCUGAUGAAAGAUUACAGUGCCAUCUCCUUCCCAUAGUUCUGCUCUUGCGGUCGCACUAGUGUGGAAUUCUCGGGUGUCAAGG	0.881 R (bound/input frequency ratio)
